target: Ehrlichia translocated factor-1 (Etf-1) (Ehrlichia chaffeensis, UniProt Q2GG12 1-380); experiment: fluorescence polarisation; conditions: both partners purified
Starred links: 1 amine or outer side, 2 acyl side, 3 side chain; linkers in the order of their positions; H or OH if unused. Positions of bridges follow the written chain, without caps; N, C: chain ends. Non-standard residues stand in square brackets, D forms with d. No end group written: not given here. Trimesoyl = O=C(c1cc(C(=O)[*:2])cc(C(=O)[*:3])c1)[*:1]; Phe(4-Cl) = N[C@@H](Cc1ccc(Cl)cc1)C(=O)O; d1Nal = N[C@H](Cc1cccc2ccccc12)C(=O)O; d2Nal = N[C@H](Cc1ccc2ccccc2c1)C(=O)O; Dap = NC[C@H](N)C(=O)O; TMA = not defined here; βAla = NCCC(=O)O
Could you please report measured Kd for the items listed next?

INSERT INTO assay_data (binder, result) VALUES
  ('YHQ[dP]S[dL][Dap][Phe(4-Cl)][d1Nal][dR]R[dR]R[Dap]-{βAla-βAla-Lys(FAM)} (linker N-7-14 via Trimesoyl; not fully specified (N-terminus)) [macrocyclic peptide B7-23, FAM-labelled]', '4.7 µM');

Moving on to the next binder.
Query: Kd; subject: YHQ[dP]S[dL][Dap]F[d2Nal][dA]R[dR]R[Dap] (linker 7-14 via TMA; not fully specified (C-terminus); reading uncertain) [macrocyclic peptide B7-9, FAM-labelled] 30 µM
